The measurements presented in this section are drawn from patent US20230172204A1.

system: Phakopsora pachyrhizi (F129L); assay: Protective control of soybean rust on soybeans (PHAKPA P2); format: in vivo; conditions: protective P2, 16 ppm, soybean rust F129L
Lab note - cut at 1% for % PHAKPA (F129L) Disease level P2 at 16 ppm: True if strictly below, False if not.

Would you please look over these solved cases?
Molecule	Category Label
CNC(=O)/C(=N/OC)c1cccc(C)c1CO/N=C(\C)c1cccc(C2CC2(Cl)Cl)c1 (stereo not shown)	True
CNC(=O)/C(=N/OC)c1cccc(C)c1CO/N=C(\C)c1cc(C(F)(F)F)cc(F)c1NC	False
CNC(=O)/C(=N/OC)c1cccc(C)c1CO/N=C(\CC(F)(F)F)c1cc(Cl)cc(Cl)c1	False
CNC(=O)/C(=N/OC)c1cccc(C)c1CO/N=C(\CC(F)(F)F)c1ccccc1C	False
CO/N=C(/C)c1ccc(/C(C)=N/OCc2c(C)cccc2/C(=N\OC)C(=O)OC)c(C(F)(F)F)c1	False
CNC(=O)/C(=N/OC)c1cccc(C)c1CO/N=C(\C)c1ccc(F)cc1	True
CNC(=O)/C(=N/OC)c1cccc(C)c1CO/N=C(\C)c1cc(F)c(F)cc1C(F)(F)F	True
CNC(=O)/C(=N/OC)c1cccc(C)c1CO/N=C(\C)c1c(Cl)cccc1Cl	False
CO/N=C(/C(=O)OC)c1cccc(C)c1CO/N=C(\C)c1ccccc1Cl	False
CO/N=C(/C(=O)OC)c1cccc(C)c1CO/N=C(\C)c1ccc(OC)cc1OC(F)(F)F	False

Below 1% on % PHAKPA (F129L) Disease level P2 at 16 ppm? Entry CCc1ccccc1/C(C)=N/OCc1c(C)cccc1/C(=N\OC)C(=O)NC
False

One more molecule: CNC(=O)/C(=N/OC)c1cccc(C)c1CO/N=C(\C)c1ccc(F)c(F)c1
True

// same read-out, input: CO/N=C(/C(=O)OC)c1cccc(C)c1CO/N=C(\C)c1cccc(C)c1
False
